Hi there, I'd appreciate the recorded IC50 for every entry that follows.
SYSTEM UNDER TEST: recombinant His-tag Wip1(2-420) protein (amino acids #2-420) (Homo sapiens (Human), UniProt O15297)
Sequence (O15297 2-420): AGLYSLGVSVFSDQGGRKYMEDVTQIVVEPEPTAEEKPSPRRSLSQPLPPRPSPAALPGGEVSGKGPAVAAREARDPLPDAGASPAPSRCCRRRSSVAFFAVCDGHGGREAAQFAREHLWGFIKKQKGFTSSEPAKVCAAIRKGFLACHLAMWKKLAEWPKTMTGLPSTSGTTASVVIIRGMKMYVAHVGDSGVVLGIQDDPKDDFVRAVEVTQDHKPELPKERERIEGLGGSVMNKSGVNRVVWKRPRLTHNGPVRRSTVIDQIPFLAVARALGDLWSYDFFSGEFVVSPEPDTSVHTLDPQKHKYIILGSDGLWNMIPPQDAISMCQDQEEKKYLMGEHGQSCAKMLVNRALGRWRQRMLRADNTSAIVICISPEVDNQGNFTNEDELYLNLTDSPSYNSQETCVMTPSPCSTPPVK
TEST METHOD NOTES: Wip1(2-420) phosphatase enzyme FDP assay
CONDITIONS USED: fluorescein diphosphate (FDP) substrate, RT 2 hours, fluorescence Ex485/Em535; read-out: WIP1 (Truncated 2-420) FDP Assay: IC50
Write the value in nM as a bare number.

(Q) Which IC50 value is on record for C[C@@H](c1ccc(C(=O)N[C@@H](CC2CCCC2)C(=O)NC2CC2)s1)N1CCc2cc(F)c(Cl)cc21 [Compound 56] ?
(A) 39

(Q) # input molecule: Cc1ncc(Cl)cc1N[C@@H](C)c1ccc(C(=O)N[C@@H](CC2CCCC2)C(=O)NC2CCN(C)CC2)s1 [Compound 32] ; wanted: its IC50
(A) 48

(Q) Any idea what IC50 was measured for Cc1ncc(Cl)cc1N[C@@H](C)c1ccc(C(=O)N[C@@H](CC2CCCC2)C(=O)NC2CC3(COC3)C2)s1 [Compound 237] ?
(A) 8

(Q) Param item = Cc1ncc(Cl)cc1NC(c1ccc(C(=O)N[C@@H](CC2CCCC2)C(=O)NC2CC2)s1)C(F)(F)F (stereo partly shown) [Compound 224] ; retrieve measured IC50.
(A) 132

(Q) Which IC50 value is on record for Cc1ncc(Cl)cc1N[C@@H](C)c1ccc(C(=O)N[C@@H](CC2CCCC2)C(=O)NC2CCC(F)(F)C2)s1 (stereo partly shown) [Compound 26] ?
(A) 7

(Q) Any idea what IC50 was measured for CC(Nc1cc(Cl)cnc1C(N)=O)c1ccc(C(=O)N[C@@H](CC2CCCC2)C(=O)Nc2cnn(C)c2)s1 (stereo partly shown) [Compound 173] ?
(A) 8

(Q) Can you look up the measured IC50 of C[C@H](Nc1cc(Cl)cnc1C(N)=O)c1ccc(C(=O)N[C@@H](CC2CCCC2)C(=O)NC2CC2)s1 [Compound 228] for me?
(A) 5

---

SYSTEM UNDER TEST: recombinant His-tag Wip1 full length protein (amino acids #1-605) (Homo sapiens (Human))
Sequence (O15297 whole entry): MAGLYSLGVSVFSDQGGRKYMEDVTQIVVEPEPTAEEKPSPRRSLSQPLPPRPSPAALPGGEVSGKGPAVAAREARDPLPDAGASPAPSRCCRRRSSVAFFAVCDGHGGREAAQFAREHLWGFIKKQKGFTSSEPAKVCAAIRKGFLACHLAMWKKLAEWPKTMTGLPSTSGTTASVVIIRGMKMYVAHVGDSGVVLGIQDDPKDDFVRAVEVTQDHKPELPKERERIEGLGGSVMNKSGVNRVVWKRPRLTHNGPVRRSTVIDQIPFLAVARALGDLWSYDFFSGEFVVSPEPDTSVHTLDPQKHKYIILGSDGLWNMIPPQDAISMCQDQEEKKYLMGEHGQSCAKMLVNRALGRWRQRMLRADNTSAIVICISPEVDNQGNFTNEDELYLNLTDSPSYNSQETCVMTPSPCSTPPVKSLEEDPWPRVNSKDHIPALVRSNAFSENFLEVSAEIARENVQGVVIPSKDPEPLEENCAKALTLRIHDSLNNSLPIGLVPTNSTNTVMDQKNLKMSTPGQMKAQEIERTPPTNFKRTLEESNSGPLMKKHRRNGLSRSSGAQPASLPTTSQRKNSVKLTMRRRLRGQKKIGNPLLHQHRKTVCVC
TEST METHOD NOTES: Wip1 full length phosphatase enzyme FDP assay
CONDITIONS USED: fluorescein diphosphate (FDP) substrate, RT 2 hours, fluorescence Ex485/Em535
I'd appreciate it if you could supply IC50 values for the items below.

(Q) Using the record for Cc1ncc(Cl)cc1N[C@@H](C)c1ccc(C(=O)N[C@@H](CC2CCCC2)C(=O)NC23CC(O)(C2)C3)s1 , report its IC50.
(A) 10 nM

(Q) Consider the compound CC[C@H](Nc1cc(Cl)cnc1C)c1ccc(C(=O)N[C@@H](CC2CCCC2)C(=O)NC23CC(C#N)(C2)C3)s1 and give its measured IC50.
(A) 18 nM

(Q) Please give the measured IC50 for this compound: Cc1cc(NC(=O)[C@H](CC2CCCC2)NC(=O)c2cnc(C(C)Nc3cccc(Cl)c3)s2)cc(C)n1 (some centres unmarked)
(A) 62 nM

(Q) What IC50 value was documented for this compound, Cc1ncc(Cl)cc1N[C@@H](Cc1cnn(C)c1)c1ccc(C(=O)N[C@@H](CC2CCCC2)C(=O)NC2CC2)s1 ?
(A) 10 nM

(Q) Entry Cc1ncc(Cl)cc1NC(C)c1ccc(C(=O)N[C@@H](CC2CCCC2)C(=O)NC2CC2(F)F)s1 (some centres unmarked) : reported IC50 = ?
(A) 11 nM

---

SYSTEM UNDER TEST: recombinant His-tag Wip1(2-420) protein (amino acids #2-420) (Homo sapiens (Human), UniProt O15297)
TEST METHOD NOTES: Wip1(2-420) phosphatase enzyme FDP assay
CONDITIONS USED: fluorescein diphosphate (FDP) substrate, RT 2 hours, fluorescence Ex485/Em535; read-out: WIP1 (Truncated 2-420) FDP Assay: IC50
Description: The Human Wip1 (2-420, aa 2-420) or Wip1 full length (aa 1-605) DNA sequence was codon optimized and synthesized by Genscript for insect cell expression. The open reading frame of Wip1(2-420) with a N-terminal-His6 affinity tag followed by a TEV cleavage site was subcloned sites into the pFastBac1 expression vector. The recombinant bacmid DNA was transfected in Sf9 insect cells for baculovirus production. […]
pIC50: −log10 of the molar value.
Lab note: compare pIC50 against 8. Equal or greater, write Fulfilled. Smaller, write Not fulfilled.

(Q) Check the entry Cc1ncc(Cl)cc1N[C@@H](C)c1ccc(C(=O)N[C@H](C(=O)NC2CC2)C2CCCCC2)s1 [Compound 174] : does pIC50 equal or exceed 8?
(A) Not fulfilled

(Q) Hi team, for Cc1ncc(Cl)cc1N[C@@H](C)c1ccc(C(=O)N[C@@H](CC2CCCC2)C(=O)Nc2ccnc(O)c2)s1 [Compound 139] , is the recorded pIC50 at or above 8?
(A) Fulfilled

(Q) Does C[C@@H](Nc1ccc(F)c(Cl)c1)c1ccc(C(=O)N[C@@H](CC2CCCC2)C(=O)NC2CC2)s1 [Compound 7] have a reported pIC50 of at least 8?
(A) Not fulfilled

(Q) Does the reported pIC50 for Cc1ncc(Cl)cc1N[C@@H](C)c1ccc(C(=O)N[C@@H](CC2CCCC2)C(=O)Nc2cnn(CCF)c2)s1 [Compound 141] fall at or above the 8 mark?
(A) Fulfilled

(Q) Decide: pIC50 of Cc1ncc(Cl)cc1N[C@H](Cc1cnn(C)c1)c1ccc(C(=O)N[C@@H](CC2CCCC2)C(=O)NC2CC2)s1 [Compound 170] >= 8?
(A) Not fulfilled

(Q) I'd appreciate it if you could say whether Cc1ncc(Cl)cc1N[C@H](Cc1ccccc1)c1ccc(C(=O)N[C@@H](CC2CCCC2)C(=O)NC2CC2)s1 [Compound 261] has pIC50 at least equal to 8.
(A) Not fulfilled

(Q) Given COC(=O)[C@H]1C[C@H](NC(=O)[C@H](CC2CCCC2)NC(=O)c2ccc([C@H](C)Nc3cc(Cl)cnc3C)s2)C1 [Compound 94] , state whether its pIC50 is at least 8.
(A) Fulfilled

---

SYSTEM UNDER TEST: recombinant His-tag Wip1(2-420) protein (amino acids #2-420) (Homo sapiens (Human), UniProt O15297)
TEST METHOD NOTES: Wip1(2-420) phosphatase enzyme FDP assay
CONDITIONS USED: fluorescein diphosphate (FDP) substrate, RT 2 hours, fluorescence Ex485/Em535; read-out: WIP1 (Truncated 2-420) FDP Assay: IC50
Provide the recorded pIC50 for the entries that follow.
API: returns pIC50 as number; meaning -log10 of concentration in mol/L.

(Q) Can you look up the measured pIC50 of Cc1ncc(Cl)cc1N[C@@H](C)c1ccc(C(=O)N[C@@H](CC2CCCC2)C(=O)NC(C)C)s1 [Compound 84] for me?
(A) 8.10

(Q) Reported pIC50 for C[C@@H](Nc1cccc(Cl)c1)c1ccc(C(=O)N[C@@H](CC2CCCC2)C(=O)NC2CC2)s1 [Compound 1] : what is it?
(A) 8.22

(Q) // pIC50 lookup, key: Cc1ncc(Cl)cc1N[C@@H](C)c1ccc(C(=O)N[C@@H](CC2CCCC2)C(=O)Nc2ccc3c(c2)CCCN3C)s1 [Compound 168]
(A) 7.96

(Q) Given Cc1cccc(NC(=O)[C@H](CC2CCCC2)NC(=O)c2ccc([C@H](C)Nc3cc(Cl)cnc3C)s2)n1 [Compound 86] , state its recorded pIC50.
(A) 8.10

(Q) I would be grateful if you could share the reported pIC50 for Cc1ncc(Cl)cc1N[C@@H](C)c1ccc(C(=O)N[C@@H](CC2CCCC2)C(=O)NC2CC(F)(F)C2)s1 [Compound 25] .
(A) 8.30

---

SYSTEM UNDER TEST: recombinant His-tag Wip1(2-420) protein (amino acids #2-420) (Homo sapiens (Human))
TEST METHOD NOTES: Wip1(2-420) phosphatase enzyme FDP assay
CONDITIONS USED: fluorescein diphosphate (FDP) substrate, RT 2 hours, fluorescence Ex485/Em535; read-out: WIP1 (Truncated 2-420) FDP Assay: IC50
Exercise: state measured log10 IC50 for each of the molecules provided.
Note: values are log10 of IC50 expressed in nM.

(Q) Give the reported log10 IC50 for C[C@H](Nc1cc(Cl)cnc1-c1cccc(Cl)c1)c1ccc(C(=O)N[C@@H](CC2CCCC2)C(=O)NC2CC2)s1 (system: recombinant His-tag Wip1(2-420) protein (amino acids #2-420) (Homo sapiens (Human))).
(A) 0.90

(Q) Provide the documented log10 IC50 with recombinant His-tag Wip1(2-420) protein (amino acids #2-420) (Homo sapiens (Human)) as the system for Cc1ncc(Cl)cc1N[C@@H](C)c1ccc(C(=O)N[C@@H](CC2CCCC2)C(=O)Nc2ccc(C(N)=O)nc2)s1
(A) 0.70

(Q) Please state recorded log10 IC50 (tested on recombinant His-tag Wip1(2-420) protein (amino acids #2-420) (Homo sapiens (Human))) of Cc1ncc(Cl)cc1N[C@@H](C)c1ccc(C(=O)N[C@@H](CC2CCCC2)C(=O)NCCF)s1
(A) 1.00

(Q) Record lookup: for recombinant His-tag Wip1(2-420) protein (amino acids #2-420) (Homo sapiens (Human)), what log10 IC50 belongs to Cc1ncc(Cl)cc1N[C@@H](C)c1ccc(C(=O)N[C@@H](CC2CCCC2)C(=O)N[C@H]2C[C@H](C#N)C2)s1 ?
(A) 1.00

(Q) Param readout = log10 IC50; param system = recombinant His-tag Wip1(2-420) protein (amino acids #2-420) (Homo sapiens (Human)); param query = Cc1ncc(Cl)cc1N[C@@H](C)c1ccc(C(=O)N[C@@H](CC2CCCC2)C(=O)Nc2ccc3c(c2)N(C)CCC3)s1 ; response: value
(A) 1.04

(Q) What value of log10 IC50 on recombinant His-tag Wip1(2-420) protein (amino acids #2-420) (Homo sapiens (Human)) does C[C@H](c1ccc(C(=O)N[C@@H](CC2CCCC2)C(=O)NC23CC(C2)C3)s1)N(C)c1cncc(Cl)c1 have?
(A) 1.04

(Q) So what log10 IC50 did Cc1ncc(Cl)cc1N[C@@H](C)c1ccc(C(=O)N[C@@H](CC2CCCC2)C(=O)Nc2ccnc(Cl)c2)s1 get with recombinant His-tag Wip1(2-420) protein (amino acids #2-420) (Homo sapiens (Human))?
(A) 0.70

(Q) Query log10 IC50 on recombinant His-tag Wip1(2-420) protein (amino acids #2-420) (Homo sapiens (Human)) for Cc1ncc(Cl)cc1N[C@@H](C)c1ccc(C(=O)N[C@@H](C[C@H]2CCC3CC32)C(=O)NC23CC(C2)C3)s1 (stereo partly drawn)
(A) 0.70

(Q) Give the reported log10 IC50 for Cc1ncc(Cl)cc1N[C@@H](C)c1ccc(C(=O)N[C@@H](CC23CCC(CC2)CC3)C(=O)NC2CC2)s1 (system: recombinant His-tag Wip1(2-420) protein (amino acids #2-420) (Homo sapiens (Human))).
(A) 0.78

(Q) Reported log10 IC50 for recombinant His-tag Wip1(2-420) protein (amino acids #2-420) (Homo sapiens (Human)), given Cc1ncc(Cl)cc1N[C@H](Cc1ccc(F)cc1)c1ccc(C(=O)N[C@@H](CC2CCCC2)C(=O)NC2CC2)s1 ?
(A) 1.83

(Q) // fetch recombinant His-tag Wip1(2-420) protein (amino acids #2-420) (Homo sapiens (Human)) log10 IC50 for C[C@H](c1ccc(C(=O)N[C@@H](CC2CCCC2)C(=O)NC2CC2)s1)N(C)c1cncc(Cl)c1
(A) 1.04

(Q) Form field: log10 IC50 recorded for COCCn1cc(NC(=O)[C@H](CC2CCCC2)NC(=O)c2ccc([C@H](C)Nc3cc(Cl)cnc3C)s2)cn1 with recombinant His-tag Wip1(2-420) protein (amino acids #2-420) (Homo sapiens (Human)) (enter value)
(A) 0.78

(Q) Identify the measured log10 IC50 of COc1cc(NC(=O)[C@H](CC2CCCC2)NC(=O)c2ccc([C@H](C)Nc3cc(Cl)cnc3C)s2)ccc1F for recombinant His-tag Wip1(2-420) protein (amino acids #2-420) (Homo sapiens (Human)).
(A) 0.60

(Q) Query log10 IC50 on recombinant His-tag Wip1(2-420) protein (amino acids #2-420) (Homo sapiens (Human)) for CC(Nc1cccc(Cl)c1)c1ncc(C(=O)N[C@@H](CC2CCCC2)C(=O)NC2CC2)s1 (stereo partly drawn)
(A) 2.20

(Q) Any idea what log10 IC50 came out for Cc1cc(NC(=O)[C@H](CC2CCCC2)NC(=O)c2ccc(C(C)(C)Nc3cc(Cl)cnc3C)s2)ccn1 on recombinant His-tag Wip1(2-420) protein (amino acids #2-420) (Homo sapiens (Human))?
(A) 0.78

(Q) Record Cc1ncc(Cl)cc1N[C@@H](C)c1ccc(C(=O)N[C@@H](CC2CCCC2)C(=O)NC2CCC2C)s1 (stereo partly drawn) : what is its log10 IC50 with recombinant His-tag Wip1(2-420) protein (amino acids #2-420) (Homo sapiens (Human))?
(A) 0.78

(Q) Reported log10 IC50 for recombinant His-tag Wip1(2-420) protein (amino acids #2-420) (Homo sapiens (Human)), given CC[C@H](Nc1cc(Cl)cnc1C)c1ccc(C(=O)N[C@@H](CC2CCCC2)C(=O)NC23CC(C2)C3)s1 ?
(A) 0.78

(Q) So what log10 IC50 did Cc1cc(NC(=O)[C@H](CC2CCCC2)NC(=O)c2cnc(C(C)Nc3cccc(Cl)c3)s2)ccn1 (stereo partly drawn) get with recombinant His-tag Wip1(2-420) protein (amino acids #2-420) (Homo sapiens (Human))?
(A) 1.82
